In this section we review reported log10(IC50) values for a set of molecules.
TEST TARGET: human BACE2 (Homo sapiens)
Sequence (Q9Y5Z0 63-518): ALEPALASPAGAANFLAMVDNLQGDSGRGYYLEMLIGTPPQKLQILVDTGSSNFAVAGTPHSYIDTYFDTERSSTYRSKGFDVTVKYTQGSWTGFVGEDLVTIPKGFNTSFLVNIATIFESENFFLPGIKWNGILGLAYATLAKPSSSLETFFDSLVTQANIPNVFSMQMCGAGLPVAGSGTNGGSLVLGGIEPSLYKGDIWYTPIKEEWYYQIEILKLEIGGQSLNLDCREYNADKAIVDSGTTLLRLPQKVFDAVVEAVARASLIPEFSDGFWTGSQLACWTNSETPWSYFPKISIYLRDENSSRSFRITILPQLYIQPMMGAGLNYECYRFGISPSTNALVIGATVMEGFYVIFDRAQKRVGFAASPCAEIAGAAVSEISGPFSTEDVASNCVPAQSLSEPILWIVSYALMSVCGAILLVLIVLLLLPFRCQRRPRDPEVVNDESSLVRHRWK
ASSAY PROTOCOL: Fluorescent kinetic assay for human recombinant BACE 2 (WABC-6 peptide substrate)
Format: biochemical
CONDITION LABEL: 1.5 nM enzyme, 25 μM substrate, pH 4.5, room temperature
TEST READOUT: log10(IC50) (log10 of the value in µM)

> print(dat)
                                    molecule  recorded.value
 1  NC1=NC(c2ccc(OC(F)(F)F)cc2)(c2cccc(-c3cccnc3F)c2)C2=NCCCCCN12 (stereo not drawn) [Example 37]            1.03
 2  CCOc1ccc(C2(c3cccc(-c4cccnc4F)c3)N=C(N)N3CCCN=C32)cc1OCC (stereo not drawn) [Example 25]            0.99
 3  NC1=NC(c2ccc(OC(F)(F)F)cc2)(c2cccc(-c3cccnc3F)c2)C2=NCCCN12 (stereo not drawn) [Example 17]            1.06
 4  NC1=NC(c2ccc(OC(F)F)cc2)(c2cccc(-c3cccnc3F)c2)C2=NCCCN12 (stereo not drawn) [Example 41]            0.09
 5  NC1=NC(c2ccc(OC(F)(F)F)cc2)(c2cccc(-c3cncc(F)c3)c2)C2=NCCCN12 (stereo not drawn) [Example 19]            0.51
 6  COc1ccc(C2(c3cccc(-c4cccnc4F)c3)N=C(N)N3CCCN=C32)cc1 (stereo not drawn) [Example 21]            0.82
 7  COc1ccc(C2(c3ccc(F)c(-c4cccnc4F)c3)N=C(N)N3CCCN=C32)cc1 (stereo not drawn) [Example 24]            0.91
 8  NC1=NC(c2ccc(OC(F)(F)F)cc2)(c2cccc(-c3cc(F)cnc3F)c2)C2=NCCCN12 (stereo not drawn) [Example 28]            0.67
 9  NC1=NC(c2ccc(OC(F)(F)F)cc2)(c2cccc(-c3cncc(Cl)c3)c2)C2=NCCCN12 (stereo not drawn) [Example 20]           -0.27
10  NC1=N[C@@](c2ccc(OC(F)(F)F)cc2)(c2cccc(-c3cnccc3F)c2)C2=NCCCN12 [Example 33A]            0.60
11  NC1=N[C@](c2ccc(OC(F)(F)F)cc2)(c2cccc(-c3cncnc3)c2)C2=NCCCN12 (single isomer, unassigned) [Example 31A]            1.02
12  NC1=NC(c2ccc(OC(F)(F)F)cc2)(c2cccc(-c3cccnc3F)c2)C2=NCCCCN12 (stereo not drawn) [Example 36]            0.86
13  NC1=N[C@@](c2ccc(OC(F)(F)F)cc2)(c2cccc(-c3cncc(Cl)c3)c2)C2=NCCCN12 [Example 32A]           -0.57
14  NC1=NC(c2ccc(OC(F)F)cc2)(c2cccc(-c3cccnc3F)c2)C2=NCC3(COC3)CN12 (stereo not drawn) [Example 46]           -0.26
15  NC1=N[C@@](c2ccc(OC(F)(F)F)cc2)(c2cccc(-c3cccnc3F)c2)C2=NCCCN12 (single isomer, unassigned) [Example 30B]            0.58
16  NC1=NC(c2ccc(OC(F)F)cc2)(c2cccc(-c3cccnc3F)c2)C2=NCC3(CCC3)CN12 (stereo not drawn) [Example 47]            0.06
17  NC1=N[C@](c2ccc(OC(F)F)cc2)(c2cccc(-c3cccnc3F)c2)C2=NCCCN12 [Example 45A]           -0.15
18  NC1=NC(c2ccc(OC(F)F)cc2)(c2cccc(-c3cccnc3F)c2)C2=NCC3(CC3)CN12 (stereo not drawn) [Example 44]            0.35

Source listed as patent US20090042912A1.
